Measurement notes: Microsomal stability assay in liver microsomes
Format: in vitro ADME
Condition description: mouse, pH 7.4
Attribute measured: microsomal CLint at 1 µM (µL/min/mg)

- O=C(Nc1ccc(-c2cnc3ccccc3n2)cc1)C1CCN(S(=O)(=O)c2ccccc2Cl)CC1: 42.8

###

Measurement notes: Microsomal stability assay in liver microsomes
Assay type: in vitro ADME
Condition description: human, pH 7.4
Attribute measured: microsomal CLint at 1 µM

- O=C(Nc1ccc(-c2cnc3ccccc3n2)cc1)C1CCN(S(=O)(=O)c2ccccc2Cl)CC1 [Compound 4m]: 22.5 µL/min/mg

###

Measured pIC50 on human sEH (Homo sapiens, UniProt P34913) follows.
Sequence (P34913 whole entry): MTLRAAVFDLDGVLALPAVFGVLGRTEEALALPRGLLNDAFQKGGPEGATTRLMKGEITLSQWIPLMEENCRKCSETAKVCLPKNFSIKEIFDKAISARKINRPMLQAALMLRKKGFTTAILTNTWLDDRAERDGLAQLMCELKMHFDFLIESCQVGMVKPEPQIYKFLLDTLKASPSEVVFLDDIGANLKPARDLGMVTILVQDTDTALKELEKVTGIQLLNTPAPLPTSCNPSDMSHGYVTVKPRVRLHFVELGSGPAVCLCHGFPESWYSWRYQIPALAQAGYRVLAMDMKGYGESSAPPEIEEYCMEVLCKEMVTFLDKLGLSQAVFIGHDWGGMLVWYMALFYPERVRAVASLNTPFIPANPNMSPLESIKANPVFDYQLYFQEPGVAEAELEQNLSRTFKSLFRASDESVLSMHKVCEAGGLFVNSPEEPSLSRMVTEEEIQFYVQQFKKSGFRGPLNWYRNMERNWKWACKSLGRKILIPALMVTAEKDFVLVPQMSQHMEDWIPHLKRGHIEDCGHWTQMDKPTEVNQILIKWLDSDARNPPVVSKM
pIC50: −log10 of the molar value.
Attribute measured: pIC50

- O=C(Nc1ccc(-c2cncnc2)cc1)C1CCN(S(=O)(=O)c2ccccc2Cl)CC1: 8.25
- O=C(Nc1ccc(-c2cnc(Cl)nc2)cc1)C1CCN(S(=O)(=O)c2ccccc2Cl)CC1: 7.49
- O=C(Nc1ccc(-c2cnc(Cl)nc2Cl)cc1)C1CCN(S(=O)(=O)c2ccccc2Cl)CC1: 7.10
- O=C(Nc1ccc(-c2ncc(Cl)cn2)cc1)C1CCN(S(=O)(=O)c2ccccc2Cl)CC1: 7.05
- COc1cnc(-c2ccc(NC(=O)C3CCN(S(=O)(=O)c4ccccc4Cl)CC3)cc2)nc1: 7.58
- COc1cn2c(-c3ccc(NC(=O)C4CCN(S(=O)(=O)c5ccccc5Cl)CC4)cc3)nnc2c(OC)n1: 7.71
- O=C(Nc1ccc(-c2ncccn2)cc1)C1CCN(S(=O)(=O)c2ccccc2Cl)CC1: 7.71
- COc1cnc(-n2nnnc2-c2ccc(NC(=O)C3CCN(S(=O)(=O)c4ccccc4Cl)CC3)cc2)c(OC)n1: 6.67
- O=C(Nc1ccc(-c2nnn[nH]2)cc1)C1CCN(S(=O)(=O)c2ccccc2Cl)CC1: 6.63
- O=C(Nc1ccc(-c2cnc(C(F)(F)F)nc2)cc1)C1CCN(S(=O)(=O)c2ccccc2Cl)CC1: 7.02
- O=C(Nc1ccc(-c2cnc3ccccc3n2)cc1)C1CCN(S(=O)(=O)c2ccccc2Cl)CC1: 9.15
- Cc1cnc(-c2ccc(NC(=O)C3CCN(S(=O)(=O)c4ccccc4Cl)CC3)cc2)nc1: 7.13
- O=C(Nc1ccc(-c2cnc(F)nc2)cc1)C1CCN(S(=O)(=O)c2ccccc2Cl)CC1: 7.57
- O=C(Nc1ccc(-c2nnnn2C2CC2)cc1)C1CCN(S(=O)(=O)c2ccccc2Cl)CC1: 7.66
- Cc1ncc(-c2ccc(NC(=O)C3CCN(S(=O)(=O)c4ccccc4Cl)CC3)cc2)cn1: 8.25
- O=C(Nc1ccc(-c2nnnn2Cc2ccccc2)cc1)C1CCN(S(=O)(=O)c2ccccc2Cl)CC1: 8.01
- COc1ncc(-c2ccc(NC(=O)C3CCN(S(=O)(=O)c4ccccc4Cl)CC3)cc2)cn1: 8.11
- O=C(Nc1ccc(-c2ncc(F)cn2)cc1)C1CCN(S(=O)(=O)c2ccccc2Cl)CC1: 7.63

###

Measurement notes: Microsomal stability assay in liver microsomes
Assay type: in vitro ADME
Condition description: mouse, pH 7.4
Attribute measured: half-life at 1 µM (min)

* O=C(Nc1ccc(-c2cnc3ccccc3n2)cc1)C1CCN(S(=O)(=O)c2ccccc2Cl)CC1 [Compound 4m] | 32

###

Measurement notes: Microsomal stability assay in liver microsomes
Assay type: in vitro ADME
Condition description: human, pH 7.4
Attribute measured: half-life at 1 µM

• O=C(Nc1ccc(-c2cnc3ccccc3n2)cc1)C1CCN(S(=O)(=O)c2ccccc2Cl)CC1 = > 1 h

###

Measurement notes: Microsomal stability assay in liver microsomes
Format: in vitro ADME
Condition description: rat, pH 7.4
Attribute measured: microsomal CLint at 1 µM (µL/min/mg)

* O=C(Nc1ccc(-c2cnc3ccccc3n2)cc1)C1CCN(S(=O)(=O)c2ccccc2Cl)CC1 | 52.6

###

Protein target, amino acids: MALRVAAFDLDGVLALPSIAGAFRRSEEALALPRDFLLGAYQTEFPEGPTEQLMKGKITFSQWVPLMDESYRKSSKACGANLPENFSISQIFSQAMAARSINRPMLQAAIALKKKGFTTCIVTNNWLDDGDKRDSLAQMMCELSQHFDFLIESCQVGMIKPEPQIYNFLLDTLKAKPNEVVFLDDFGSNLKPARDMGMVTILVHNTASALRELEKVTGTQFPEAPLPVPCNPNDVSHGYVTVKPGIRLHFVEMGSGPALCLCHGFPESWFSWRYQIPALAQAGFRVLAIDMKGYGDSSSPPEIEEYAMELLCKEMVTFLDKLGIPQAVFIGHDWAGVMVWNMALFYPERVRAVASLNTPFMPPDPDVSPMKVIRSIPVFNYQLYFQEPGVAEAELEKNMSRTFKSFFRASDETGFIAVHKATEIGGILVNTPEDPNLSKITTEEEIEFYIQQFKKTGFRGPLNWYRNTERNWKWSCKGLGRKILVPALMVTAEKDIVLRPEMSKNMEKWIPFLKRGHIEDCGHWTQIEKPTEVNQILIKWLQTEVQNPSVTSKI
pIC50: −log10 of the molar value.
Attribute measured: pIC50

* O=C(Nc1ccc(-c2cnc3ccccc3n2)cc1)C1CCN(S(=O)(=O)c2ccccc2Cl)CC1 | 7.41
* COc1cn2c(-c3ccc(NC(=O)C4CCN(S(=O)(=O)c5ccccc5Cl)CC4)cc3)nnc2c(OC)n1 | 8.05
* O=C(Nc1ccc(-c2cnc(Cl)nc2Cl)cc1)C1CCN(S(=O)(=O)c2ccccc2Cl)CC1 | 7.39
* O=C(Nc1ccc(-c2cncnc2)cc1)C1CCN(S(=O)(=O)c2ccccc2Cl)CC1 | 6.04
* O=C(Nc1ccc(-c2ncc(Cl)cn2)cc1)C1CCN(S(=O)(=O)c2ccccc2Cl)CC1 | 7.05
* COc1cnc(-c2ccc(NC(=O)C3CCN(S(=O)(=O)c4ccccc4Cl)CC3)cc2)nc1 | 7.49
* Cc1cnc(-c2ccc(NC(=O)C3CCN(S(=O)(=O)c4ccccc4Cl)CC3)cc2)nc1 | 7.10
* Cc1ncc(-c2ccc(NC(=O)C3CCN(S(=O)(=O)c4ccccc4Cl)CC3)cc2)cn1 | 6.67
* O=C(Nc1ccc(-c2ncc(F)cn2)cc1)C1CCN(S(=O)(=O)c2ccccc2Cl)CC1 | 7.08
* COc1cnc(-n2nnnc2-c2ccc(NC(=O)C3CCN(S(=O)(=O)c4ccccc4Cl)CC3)cc2)c(OC)n1 | 6.58
* O=C(Nc1ccc(-c2cnc(F)nc2)cc1)C1CCN(S(=O)(=O)c2ccccc2Cl)CC1 | 6.79
* O=C(Nc1ccc(-c2ncccn2)cc1)C1CCN(S(=O)(=O)c2ccccc2Cl)CC1 | 6.47
* O=C(Nc1ccc(-c2nnnn2C2CC2)cc1)C1CCN(S(=O)(=O)c2ccccc2Cl)CC1 | 7.90
* COc1ncc(-c2ccc(NC(=O)C3CCN(S(=O)(=O)c4ccccc4Cl)CC3)cc2)cn1 | 6.42
* O=C(Nc1ccc(-c2cnc(Cl)nc2)cc1)C1CCN(S(=O)(=O)c2ccccc2Cl)CC1 | 6.29
* O=C(Nc1ccc(-c2cnc(C(F)(F)F)nc2)cc1)C1CCN(S(=O)(=O)c2ccccc2Cl)CC1 | 5.95
* O=C(Nc1ccc(-c2nnnn2Cc2ccccc2)cc1)C1CCN(S(=O)(=O)c2ccccc2Cl)CC1 | 6.98
* O=C(Nc1ccc(-c2nnn[nH]2)cc1)C1CCN(S(=O)(=O)c2ccccc2Cl)CC1 | 6.70

###

Measured log10(IC50) on human FAAH (Homo sapiens, UniProt O00519) follows.
Sequence (O00519 whole entry): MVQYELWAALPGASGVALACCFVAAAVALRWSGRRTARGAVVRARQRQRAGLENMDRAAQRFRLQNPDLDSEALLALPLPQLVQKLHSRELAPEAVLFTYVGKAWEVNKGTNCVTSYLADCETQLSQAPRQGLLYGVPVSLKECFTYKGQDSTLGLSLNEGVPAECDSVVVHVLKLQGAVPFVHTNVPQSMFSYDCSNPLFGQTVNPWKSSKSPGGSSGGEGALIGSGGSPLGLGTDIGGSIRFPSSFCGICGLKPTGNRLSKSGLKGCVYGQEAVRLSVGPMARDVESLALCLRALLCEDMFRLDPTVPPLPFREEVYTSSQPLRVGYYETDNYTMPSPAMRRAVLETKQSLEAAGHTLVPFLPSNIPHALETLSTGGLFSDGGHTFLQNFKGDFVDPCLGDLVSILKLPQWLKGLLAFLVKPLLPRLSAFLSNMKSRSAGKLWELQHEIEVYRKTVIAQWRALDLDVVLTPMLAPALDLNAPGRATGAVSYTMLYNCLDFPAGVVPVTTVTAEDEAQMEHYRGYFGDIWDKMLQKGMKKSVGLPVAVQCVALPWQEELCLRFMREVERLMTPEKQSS
Attribute measured: log10(IC50) (log10 of the value in nM)

- O=C(Nc1ccc(-c2ncccn2)cc1)C1CCN(S(=O)(=O)c2ccccc2Cl)CC1 [Compound 4a]: 2.24
- O=C(Nc1ccc(-c2cnc(Cl)nc2Cl)cc1)C1CCN(S(=O)(=O)c2ccccc2Cl)CC1 [Compound 4l]: 3.30
- COc1cnc(-c2ccc(NC(=O)C3CCN(S(=O)(=O)c4ccccc4Cl)CC3)cc2)nc1 [Compound 4f]: 2.26
- O=C(Nc1ccc(-c2cnc(F)nc2)cc1)C1CCN(S(=O)(=O)c2ccccc2Cl)CC1 [Compound 4g]: 2.24
- O=C(Nc1ccc(-c2cnc(C(F)(F)F)nc2)cc1)C1CCN(S(=O)(=O)c2ccccc2Cl)CC1 [Compound 4k]: 2.51
- O=C(Nc1ccc(-c2cnc3ccccc3n2)cc1)C1CCN(S(=O)(=O)c2ccccc2Cl)CC1 [Compound 4m]: 0.46
- O=C(Nc1ccc(-c2cncnc2)cc1)C1CCN(S(=O)(=O)c2ccccc2Cl)CC1 [Compound 4b]: 2.29
- Cc1ncc(-c2ccc(NC(=O)C3CCN(S(=O)(=O)c4ccccc4Cl)CC3)cc2)cn1 [Compound 4i]: 3.09

###

Measured IC50 on human FAAH (Homo sapiens, UniProt O00519) follows.
Attribute measured: IC50

- COc1cn2c(-c3ccc(NC(=O)C4CCN(S(=O)(=O)c5ccccc5Cl)CC4)cc3)nnc2c(OC)n1 [Compound 4r]: > 10 µM
- O=C(Nc1ccc(-c2nnnn2Cc2ccccc2)cc1)C1CCN(S(=O)(=O)c2ccccc2Cl)CC1 [Compound 4p]: > 10 µM
- COc1cnc(-n2nnnc2-c2ccc(NC(=O)C3CCN(S(=O)(=O)c4ccccc4Cl)CC3)cc2)c(OC)n1 [Compound 4q]: > 10 µM

The measurements presented in this section are drawn from paper PMC12814486.
